target: UniProt P35499; assay: Selectivity test for Nav ion channel subtypes: NaV1.4 (HEK293, patch clamp); type: cell-based; details: 1 uM; HEK293 cells
Sequence (P35499 whole entry): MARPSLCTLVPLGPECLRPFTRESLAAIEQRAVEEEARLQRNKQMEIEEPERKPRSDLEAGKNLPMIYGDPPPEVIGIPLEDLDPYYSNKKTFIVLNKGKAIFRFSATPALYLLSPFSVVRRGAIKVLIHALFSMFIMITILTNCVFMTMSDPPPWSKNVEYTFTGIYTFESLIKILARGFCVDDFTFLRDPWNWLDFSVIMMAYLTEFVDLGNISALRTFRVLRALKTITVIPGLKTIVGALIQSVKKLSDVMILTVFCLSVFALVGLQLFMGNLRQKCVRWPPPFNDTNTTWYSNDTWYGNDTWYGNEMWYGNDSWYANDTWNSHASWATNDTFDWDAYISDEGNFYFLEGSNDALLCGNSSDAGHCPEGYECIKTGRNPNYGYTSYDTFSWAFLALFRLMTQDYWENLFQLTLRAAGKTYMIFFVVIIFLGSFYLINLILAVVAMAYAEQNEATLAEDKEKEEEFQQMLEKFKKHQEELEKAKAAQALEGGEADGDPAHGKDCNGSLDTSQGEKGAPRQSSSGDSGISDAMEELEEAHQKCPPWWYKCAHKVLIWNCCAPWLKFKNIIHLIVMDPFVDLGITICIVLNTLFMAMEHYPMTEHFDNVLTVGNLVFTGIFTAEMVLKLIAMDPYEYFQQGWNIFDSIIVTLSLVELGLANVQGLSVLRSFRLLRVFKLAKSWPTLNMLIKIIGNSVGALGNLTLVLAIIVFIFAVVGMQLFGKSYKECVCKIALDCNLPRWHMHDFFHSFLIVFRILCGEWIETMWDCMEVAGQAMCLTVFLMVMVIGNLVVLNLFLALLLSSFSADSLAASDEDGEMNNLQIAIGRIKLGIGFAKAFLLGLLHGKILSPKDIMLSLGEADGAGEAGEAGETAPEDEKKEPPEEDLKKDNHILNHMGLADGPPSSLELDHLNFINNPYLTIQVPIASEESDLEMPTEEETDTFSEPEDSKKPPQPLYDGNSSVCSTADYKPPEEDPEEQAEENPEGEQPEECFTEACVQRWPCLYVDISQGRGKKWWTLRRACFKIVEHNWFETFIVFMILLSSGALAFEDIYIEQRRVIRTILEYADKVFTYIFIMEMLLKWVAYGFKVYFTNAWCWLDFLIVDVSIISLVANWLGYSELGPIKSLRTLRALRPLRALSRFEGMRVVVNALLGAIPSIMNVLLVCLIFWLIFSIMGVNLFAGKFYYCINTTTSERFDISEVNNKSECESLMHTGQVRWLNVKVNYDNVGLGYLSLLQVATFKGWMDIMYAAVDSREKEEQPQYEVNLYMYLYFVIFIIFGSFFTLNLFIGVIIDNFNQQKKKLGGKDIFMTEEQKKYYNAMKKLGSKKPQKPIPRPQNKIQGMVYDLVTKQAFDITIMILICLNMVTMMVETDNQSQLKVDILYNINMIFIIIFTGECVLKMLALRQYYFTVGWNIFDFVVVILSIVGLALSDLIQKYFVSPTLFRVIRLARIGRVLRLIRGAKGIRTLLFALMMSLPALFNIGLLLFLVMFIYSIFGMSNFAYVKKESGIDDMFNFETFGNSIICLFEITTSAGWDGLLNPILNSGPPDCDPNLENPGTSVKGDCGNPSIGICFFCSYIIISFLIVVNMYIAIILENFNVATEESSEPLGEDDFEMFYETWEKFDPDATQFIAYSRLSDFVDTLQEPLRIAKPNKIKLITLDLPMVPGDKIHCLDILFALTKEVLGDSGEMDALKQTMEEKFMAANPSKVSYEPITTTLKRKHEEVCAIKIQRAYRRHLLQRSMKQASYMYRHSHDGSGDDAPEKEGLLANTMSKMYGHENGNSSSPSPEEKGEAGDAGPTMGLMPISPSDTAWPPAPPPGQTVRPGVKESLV
Observable: Inhibition ratio on Nav1.4 (%)

- Compound: "Cc1cc(F)ccc1Oc1cc(C2CC2)c(C(F)(F)F)cc1C(=O)Nc1ccc(F)c(OC[C@H](O)CNC(=O)CO)c1 [Example 119]"
  System name: "UniProt P35499"
  Observable: "Inhibition ratio on Nav1.4"
  Measurement units: "%"
  Bound sign: "="
  Measured result: 1.4
- Compound: "Cc1cc(F)ccc1Oc1cc(C(F)(F)F)c(Cl)cc1C(=O)Nc1ccc(F)c(OC[C@H](O)CNC(=O)CO)c1 [Example 117]"
  System name: "UniProt P35499"
  Observable: "Inhibition ratio on Nav1.4"
  Measurement units: "%"
  Bound sign: "<"
  Measured result: 1
- Compound: "Cc1cc(F)ccc1Oc1cc(C(F)(F)F)ccc1C(=O)Nc1ccn(COP(=O)(O)O)c(=O)c1 [VX-150, reference compound]"
  System name: "UniProt P35499"
  Observable: "Inhibition ratio on Nav1.4"
  Measurement units: "%"
  Bound sign: "="
  Measured result: 3.6
- Compound: "Cc1cc(F)ccc1Oc1cc(C2CC2)c(C(F)(F)F)cc1C(=O)Nc1ccnc(OC[C@H](O)CO)c1 [Example 104]"
  System name: "UniProt P35499"
  Observable: "Inhibition ratio on Nav1.4"
  Measurement units: "%"
  Bound sign: "<"
  Measured result: 1
- Compound: "Cc1cc(F)ccc1Oc1cc(C(F)(F)F)c(Cl)cc1C(=O)Nc1cnnc(OC[C@H](O)CO)c1 [Example 116]"
  System name: "UniProt P35499"
  Observable: "Inhibition ratio on Nav1.4"
  Measurement units: "%"
  Bound sign: "<"
  Measured result: 1
- Compound: "Cc1cc(F)ccc1Oc1cc(C(F)(F)F)c(Cl)cc1C(=O)Nc1ccnc(OC[C@H](O)CO)c1 [Example 114]"
  System name: "UniProt P35499"
  Observable: "Inhibition ratio on Nav1.4"
  Measurement units: "%"
  Bound sign: "="
  Measured result: 2.7

Recorded values, source patent US20230303497A1.
